- system: Glucocorticoid receptor (Homo sapiens)
- Sequence (P04150 whole entry): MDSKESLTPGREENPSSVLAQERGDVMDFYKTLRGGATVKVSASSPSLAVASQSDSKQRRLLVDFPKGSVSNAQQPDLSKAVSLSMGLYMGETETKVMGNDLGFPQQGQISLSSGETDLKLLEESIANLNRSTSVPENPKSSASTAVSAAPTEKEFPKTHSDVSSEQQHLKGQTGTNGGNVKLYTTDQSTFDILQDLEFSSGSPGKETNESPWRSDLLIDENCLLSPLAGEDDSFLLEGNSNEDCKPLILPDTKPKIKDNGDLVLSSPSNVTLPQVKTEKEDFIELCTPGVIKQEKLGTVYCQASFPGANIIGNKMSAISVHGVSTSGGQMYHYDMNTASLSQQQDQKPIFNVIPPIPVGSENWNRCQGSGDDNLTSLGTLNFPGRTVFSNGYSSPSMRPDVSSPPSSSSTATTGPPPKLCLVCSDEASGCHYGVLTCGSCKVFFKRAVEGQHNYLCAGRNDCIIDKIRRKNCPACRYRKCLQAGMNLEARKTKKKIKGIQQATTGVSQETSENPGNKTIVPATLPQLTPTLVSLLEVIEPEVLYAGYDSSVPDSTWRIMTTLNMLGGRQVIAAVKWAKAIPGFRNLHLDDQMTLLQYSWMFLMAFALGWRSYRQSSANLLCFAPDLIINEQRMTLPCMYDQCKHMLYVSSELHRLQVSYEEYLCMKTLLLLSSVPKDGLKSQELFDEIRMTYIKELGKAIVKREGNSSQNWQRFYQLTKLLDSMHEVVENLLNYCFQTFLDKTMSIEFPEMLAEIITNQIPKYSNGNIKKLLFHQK
- protocol-notes: Activity at human glucocorticoid receptor in human A549 cells assessed as repression of human IL6
outcome-measure: EC50 (nM)
All answers are understood in nM, so give the number only.

Prompt line: For C[C@]12Cc3cnn(-c4ccc(F)cc4)c3C=C1CCC[C@@H]2[C@@H](O)c1ccsc1 , what is its reported EC50?
Response line: 1

Source of measurements: ChEMBL document CHEMBL1148027
